EXPERIMENTAL_DETAILS: yeast display, Sf9 membrane polyspecificity reagent, FACS + sequencing; frameworks hold sequencing errors

>  <POLYMER_SEQUENCE>
QVQLVESGGGLVQAGGSLRLSCAASGRIFTYNAMGWYRQAPGKEWELVAVISRRGGSTYYADSVKGRFTISRDNAKNSVYLQINSLKPDDTAVYYWAADLPSYPYEFWGQGTQVTVSS

>  <polyreactivity (PSR sort gate)>
low polyreactivity

$$$$
>  <POLYMER_SEQUENCE>
QVQIVESGGALYQAGGSLRLICAASGSTFSQYAMGWYRQEPGKERELLPTINSGGSTNYADSVKGRFTISRDNAMNTVYLQMNSLKPEETAVYYCAAREDLYLYYNGQRVQYDYWGQGTQVTVSS

>  <polyreactivity (PSR sort gate)>
low polyreactivity

$$$$
